- MEASURED ON: DLG1_1, Q12959
- ASSAY OVERVIEW: holdup assay
- Design: key: below the threshold = too weak to quantify, mostly under pKd 3.1 to 4
- TEST SETTINGS: plain residues with an end cap or a label only (N-terminal biotin on a linker: ahx)
Record form. Attribute: pKd. Fill in for each entry.
Provide a numeric answer; units are not to be included.

What pKd value was documented for this binder, RRRKRKRTYL [HPV49-L2, P36762] ?
3.49

# query: pKd of entry TVICWPGSLV [LNX2, Q8N448]
4.21

Request the reported pKd associated with HNAFLSVTTV [PDZRN4, Q6ZMN7]
3.54

Quick one: pKd for LSDPSVSTVV [GRIN1, Q05586;Q05586-2] ?
4.06
